Just for reference, patent US20070032508A1 is where these values come from.

target: EGFR tyrosine kinase (Homo sapiens, UniProt P00533); construct: Recombinant intracellular fragments of EGFR, erbB2 and erbB4; test: Test (a) protein tyrosine kinase phosphorylation assay, EGFR; conditions: recombinant intracellular fragment, ATP at Km; read-out: IC50 Test (a): Inhibition of EGFR tyrosine kinase protein phosphorylation
Sequence (P00533 669-1210 limits assumed): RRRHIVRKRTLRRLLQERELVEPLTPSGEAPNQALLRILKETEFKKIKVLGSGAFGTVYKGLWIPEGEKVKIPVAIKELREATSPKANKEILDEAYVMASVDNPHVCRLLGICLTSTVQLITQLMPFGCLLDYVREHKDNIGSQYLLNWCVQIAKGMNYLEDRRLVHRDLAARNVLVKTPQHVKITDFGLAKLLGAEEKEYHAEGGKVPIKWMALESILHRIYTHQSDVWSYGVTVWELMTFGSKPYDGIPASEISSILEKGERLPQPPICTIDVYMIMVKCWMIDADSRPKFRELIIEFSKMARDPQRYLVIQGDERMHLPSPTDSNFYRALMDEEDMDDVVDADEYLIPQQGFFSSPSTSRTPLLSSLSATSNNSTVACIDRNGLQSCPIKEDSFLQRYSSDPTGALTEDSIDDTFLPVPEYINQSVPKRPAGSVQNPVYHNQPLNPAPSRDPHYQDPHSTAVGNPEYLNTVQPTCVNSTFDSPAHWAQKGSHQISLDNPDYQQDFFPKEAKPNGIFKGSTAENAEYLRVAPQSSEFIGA
observed.property: pIC50
Answers are plain numbers, as −log10 of the molar value.

// each listed compound needs a value for pIC50
1. CN(C)CC(=O)N1CCC(Oc2ccc3ncnc(Nc4ccc(OCc5ccccn5)c(Cl)c4)c3c2)CC1 [Example 8]
2. CS(=O)(=O)N1CCC(COc2ccc3ncnc(Nc4ccc(OCc5ccccn5)c(Cl)c4)c3c2)C1 (stereo not drawn) [Example 14]
3. CN(C)CC(=O)N1CCC(Oc2ccc3ncnc(Nc4ccc(OCc5cnccn5)c(Cl)c4)c3c2)CC1 [Example 9]

Out:
[7.41, 6.67, 7.68]

====

target: erbB2 tyrosine kinase (Homo sapiens); construct: Recombinant intracellular fragments of EGFR, erbB2 and erbB4; made in house; host or cells: baculovirus/Sf21 insect cells (cleared lysate used); test: Test (a) protein tyrosine kinase phosphorylation assay, erbB2; type: biochemical; settings: recombinant intracellular fragment, ATP at Km; read-out: IC50 Test (a): Inhibition of erbB2 tyrosine kinase protein phosphorylation
Sequence (P04626 676-1255 limits assumed): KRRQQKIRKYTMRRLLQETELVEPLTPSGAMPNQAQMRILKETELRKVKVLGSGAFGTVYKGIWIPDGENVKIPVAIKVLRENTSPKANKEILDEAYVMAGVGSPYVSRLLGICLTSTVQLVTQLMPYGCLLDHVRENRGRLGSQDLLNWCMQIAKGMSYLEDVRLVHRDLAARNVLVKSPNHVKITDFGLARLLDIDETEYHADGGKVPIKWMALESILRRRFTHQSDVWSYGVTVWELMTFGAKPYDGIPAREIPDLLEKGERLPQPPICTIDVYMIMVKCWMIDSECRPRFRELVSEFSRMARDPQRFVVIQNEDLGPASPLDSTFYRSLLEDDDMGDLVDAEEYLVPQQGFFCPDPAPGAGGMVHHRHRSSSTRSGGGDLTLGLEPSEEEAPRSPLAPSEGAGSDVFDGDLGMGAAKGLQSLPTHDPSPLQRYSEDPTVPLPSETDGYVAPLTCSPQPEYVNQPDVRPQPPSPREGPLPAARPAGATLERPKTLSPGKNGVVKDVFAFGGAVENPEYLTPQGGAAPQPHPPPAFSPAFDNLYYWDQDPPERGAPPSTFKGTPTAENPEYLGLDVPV
observed.property: IC50 (nM)
Give bare numbers, in nM.

These solved cases illustrate the format of a correct answer.
GET /value?item= `CN(C)CC(=O)N1CCC(Oc2ccc3ncnc(Nc4ccc(OCc5cnccn5)c(Cl)c4)c3c2)CC1` &field=IC50 returns 7

GET /value?item= CS(=O)(=O)N1CCC(COc2ccc3ncnc(Nc4ccc(OCc5ccccn5)c(Cl)c4)c3c2)C1 (stereo not drawn) &field=IC50 returns 2

Okay, now this compound:
GET /value?item= `CN(C)CC(=O)N1CCC(Oc2ccc3ncnc(Nc4ccc(OCc5ccccn5)c(Cl)c4)c3c2)CC1` &field=IC50 returns 2
